# key: entry, value: log10(koff)
biological target: T1, Recombinant SARS-CoV-2 N protein His tagged (SARS-CoV-2, UniProt P0DTC9 1-419); test: BLI (Octet Red 96E), mAb on anti-mouse Fc biosensor, N protein in solution, global 1:1 fit
T1 construct: also called nucleocapsid (N) protein; recombinant HIS tagged SARS-CoV-2 N protein
Recorded koff (log10, s⁻¹)

Memo: SCT-Pa15 (antibody, mouse IgG1, kappa, V domains shown) VH: QVQVKQSGPGLVQPSQSLSITCTVSGFSSTSYAIHWVRQSPGKGLEWLGVIWSGGTTDYNAAFISRLSFSKDNSKSQLFFKMNSLQADDTAMYYCARGNYYGMDYWGQGTSVTVSS VL: DIVVTQSPASLAVSLGQRATISCRASESIDYDGDSYVNWYQQKPGQPPNLLIYAASNLESGIPARFSGGGSGTDFTLTIHPVEEEDAATYYCLQSYETPWTFGGGTKLEIKR , reported log10(koff): -3.06
